Assay: Solvent solubility study of ralinepag
Type: physicochemical
Conditions: organic solvent or mixture, thermodynamic from solid; solvent N-methyl-2-pyrrolidone; read-out: Estimated Solubility
Procedure: To prepare amorphous material for solubility testing, 330 mg of ralinepag was dissolved in 33 mL tert-butanol (with gentle heating applied via a heatgun) before being split evenly into 33 vials (˜10 mg of ralinepag per sample). […] One vial of solid was analyzed by XRPD to confirm that ralinepag had been rendered amorphous. However, as in Example 2g, a poorly crystalline Pattern 2 was observed. […] Recovered solids were analyzed by XRPD.
assay-readout: solubility (mg/mL)
Number in mg/mL, nothing else.

**Query** Bench note: what solubility did O=C(O)COC[C@H]1CC[C@H](COC(=O)N(c2ccccc2)c2ccc(Cl)cc2)CC1 show?
**Result** 200

###

Assay: Solvent solubility study of ralinepag
Assay type: physicochemical
Conditions: organic solvent or mixture, thermodynamic from solid; solvent ethyl acetate; heated to 40° C.; read-out: Estimated Solubility
assay-readout: solubility (mg/mL)
Number in mg/mL, nothing else.

**Query** Bench note: what solubility did O=C(O)COC[C@H]1CC[C@H](COC(=O)N(c2ccccc2)c2ccc(Cl)cc2)CC1 [ralinepag] show?
**Result** 100

###

Experiment: Solvent solubility study of ralinepag
Assay type: physicochemical
Settings: organic solvent or mixture, thermodynamic from solid; solvent butyl acetate; heated to 40° C.; read-out: Estimated Solubility
assay-readout: solubility (mg/mL)
Number in mg/mL, nothing else.

**Query** Bench note: what solubility did O=C(O)COC[C@H]1CC[C@H](COC(=O)N(c2ccccc2)c2ccc(Cl)cc2)CC1 [ralinepag] show?
**Result** 50

###

Assay: Solvent solubility study of ralinepag
Type: physicochemical
Conditions: organic solvent or mixture, thermodynamic from solid; solvent heptane; read-out: Estimated Solubility
assay-readout: solubility

**Query** Bench note: what solubility did O=C(O)COC[C@H]1CC[C@H](COC(=O)N(c2ccccc2)c2ccc(Cl)cc2)CC1 show?
**Result** < 10000 µg/mL

###

Experiment: Solvent solubility study of ralinepag
Format: physicochemical
Details: organic solvent or mixture, thermodynamic from solid; solvent N,N-dimethylformamide; read-out: Estimated Solubility
assay-readout: solubility (mg/mL)
Number in mg/mL, nothing else.

**Query** Bench note: what solubility did O=C(O)COC[C@H]1CC[C@H](COC(=O)N(c2ccccc2)c2ccc(Cl)cc2)CC1 show?
**Result** 200

###

Test: Solvent solubility study of ralinepag
Type: physicochemical
Details: organic solvent or mixture, thermodynamic from solid; solvent tetrahydrofuran; heated to 40° C.; read-out: Estimated Solubility
assay-readout: solubility (mg/mL)
Number in mg/mL, nothing else.

**Query** Bench note: what solubility did O=C(O)COC[C@H]1CC[C@H](COC(=O)N(c2ccccc2)c2ccc(Cl)cc2)CC1 show?
**Result** 200

###

Test: Solvent solubility study of ralinepag
Type: physicochemical
Conditions: organic solvent or mixture, thermodynamic from solid; solvent isopropyl acetate; heated to 40° C.; read-out: Estimated Solubility
assay-readout: solubility (mg/mL)
Number in mg/mL, nothing else.

**Query** Bench note: what solubility did O=C(O)COC[C@H]1CC[C@H](COC(=O)N(c2ccccc2)c2ccc(Cl)cc2)CC1 show?
**Result** 66.7
